- Tested on: lipase AY 30
- Experiment Description: Effect of the solvent on lipase AY 30 SOA deacetylation
- Assay type: biochemical, Candida cylindracea
- Assay Conditions: lipase AY 30, solvent as labelled, 24 hrs
# SheptaA values compiled below

- Record Smiles: "COC(C)(C)C"
  Value Units: "%"
  SheptaA: 28.8
- Record Smiles: "O=C1CCCCC1"
  Value Units: "%"
  SheptaA: 2.5
- Record Smiles: "CCCOCCC"
  Value Units: "%"
  SheptaA: 32.4

###

- Tested on: lipase AP 12
- Experiment Description: Solvent effect on lipase AP 12 catalyzed deacetylation of SOA
- Type: biochemical, Aspergillus niger
- Assay Conditions: lipase AP 12, solvent as labelled, 24 hrs
- Description: Identical enzyme catalyzed SOA deacetylations were run in numerous anhydrous solvents. After 24 hrs incubation an aliquot was analyzed by HPLC. […] Enzyme and Solvent Screening for SOA Deacetylation. […] The residue was reconstituted in 200 μl of acetonitrile and 10 μl of this solution was analyzed by HPLC.
Measured Quantity: SheptaA (%)

- Compound: "ClC(Cl)(Cl)Cl [CCl4, carbon tetrachloride]"
  Target Desc: "lipase AP 12"
  Value Units: "%"
  Result Value: 4.3
- Compound: "CCCCOCC"
  Target Desc: "lipase AP 12"
  Value Units: "%"
  Result Value: 16.3
- Compound: "Cc1ccccc1"
  Target Desc: "lipase AP 12"
  Value Units: "%"
  Result Value: 5.8
- Compound: "CCCCOC(C)=O [n-butyl acetate]"
  Target Desc: "lipase AP 12"
  Value Units: "%"
  Result Value: 2.4
- Compound: "CC(C)OC(C)C"
  Target Desc: "lipase AP 12"
  Value Units: "%"
  Result Value: 15.7
- Compound: "COc1ccccc1"
  Target Desc: "lipase AP 12"
  Value Units: "%"
  Result Value: 3.8
- Compound: "C1CCOC1 [THF, tetrahydrofuran]"
  Target Desc: "lipase AP 12"
  Value Units: "%"
  Result Value: 1.6
- Compound: "c1ccccc1"
  Target Desc: "lipase AP 12"
  Value Units: "%"
  Result Value: 3.4
- Compound: "CCCOCCC"
  Target Desc: "lipase AP 12"
  Value Units: "%"
  Result Value: 15.9

###

- Target Desc: alcalase (Bacillus licheniformis)
- Construct: purchased Novo Nordisk (gift)
- Experiment Description: Solvent effect on alcalase catalyzed deacetylation of SOA
- Type: biochemical
- Assay Conditions: 24 hrs, total of 1'-OH and 6'-OH heptaacetates

- Record Smiles: "c1ccccc1"
  Value Units: "%"
  SheptaA: 6.7
- Record Smiles: "CCCCOCC"
  Value Units: "%"
  SheptaA: 16.9
- Record Smiles: "CC(C)OC(C)C"
  Value Units: "%"
  SheptaA: 22.3

###

- Tested on: lipase AY 30
- Experiment Description: Effect of the solvent on lipase AY 30 catalyzed deacylation of SOP
- Assay type: biochemical, Candida cylindracea
- Assay Conditions: lipase AY 30, 24 hrs, HPLC peak 4.2 min

- Molecule: "CCCCCCC"
  Value Units: "%"
  ShexaP (4.2 min): 6.6
- Molecule: "CC#N"
  Value Units: "%"
  ShexaP (4.2 min): 0
- Molecule: "CCCCC(=O)CC"
  Value Units: "%"
  ShexaP (4.2 min): 0
- Molecule: "O=C1CCCCC1"
  Value Units: "%"
  ShexaP (4.2 min): 0
- Molecule: "CCCCCCCC"
  Value Units: "%"
  ShexaP (4.2 min): 7.7
- Molecule: "CCCCOC(C)=O [n-butyl acetate]"
  Value Units: "%"
  ShexaP (4.2 min): 0
- Molecule: "CCCCCC"
  Value Units: "%"
  ShexaP (4.2 min): 5.8
- Molecule: "C1CCCCC1"
  Value Units: "%"
  ShexaP (4.2 min): 2.8

###

- Tested on: lipase AY 30
- Experiment Description: Effect of the solvent on lipase AY 30 SOA deacetylation
- Assay type: biochemical, Candida cylindracea
- Assay Conditions: lipase AY 30, solvent as labelled, 24 hrs
Catalogue of compounds with associated SheptaA
Measured Quantity: SheptaA

- Compound: "CC1(C)CCC(C)(C)O1 [2,2,5,5-tetramethyl THF, 2,2,5,5-tetramethyltetrahydrofuran]"
  Result Value: "31.6%"
- Compound: "CCOC(C)(C)C"
  Result Value: "38.1%"
- Compound: "c1ccccc1"
  Result Value: "1.7%"
- Compound: "CCCCCCCO"
  Result Value: "6.0%"
- Compound: "CC1CCCO1 (stereo not drawn) [2-methyl THF, 2-methyltetrahydrofuran]"
  Result Value: "3.8%"
- Compound: "CC1CCC(C)O1 (stereo not drawn) [2,5-dimethyl THF, 2,5-dimethyltetrahydrofuran]"
  Result Value: "3.8%"

###

- Tested on: lipase AY 30
- Experiment Description: Effect of the solvent on lipase AY 30 catalyzed deacylation of SOP; for SheptaP's ([…]): HPLC peak 8.2 min
- Format: biochemical, Candida cylindracea
- Assay Conditions: lipase AY 30, 24 hrs, HPLC peak […]
- Description: Identical SOP deacylations were performed with lipase AY 30 or protease type XXIII in numerous anhydrous organic solvents, as shown in Tables 12 and 13. Solvent screening for SOP deacylation. […] The residue was reconstituted in 200 μl of acetonitrile and 10 μl of this solution was analyzed by HPLC.
Form field: SheptaP's ([…]) (one value per entry).

- Compound: "CCCCOC(C)=O [n-butyl acetate]"
  SheptaP's ([…]) (%): 1.4
- Compound: "CCCCCCCCO"
  SheptaP's ([…]) (%): 1.8
- Compound: "CCCCCCCO"
  SheptaP's ([…]) (%): 1.4
- Compound: "CCCCC(=O)CC"
  SheptaP's ([…]) (%): 3.3
- Compound: "O=C1CCCCC1"
  SheptaP's ([…]) (%): 0.9
- Compound: "COC(C)(C)C"
  SheptaP's ([…]) (%): 4.3

###

- Test system: lipase AY 30
- Experiment Description: Effect of the solvent on lipase AY 30 SOA deacetylation
- Format: biochemical, Candida cylindracea
- Assay Conditions: lipase AY 30, solvent as labelled, 24 hrs

- Record Smiles: "CC(C)OC(C)C"
  SOA, %: 29.6
- Record Smiles: "COC(C)(C)C"
  SOA, %: 61.6
- Record Smiles: "CCOCCOCC"
  SOA, %: 85.0
- Record Smiles: "c1ccccc1"
  SOA, %: 97.9

###

- Target Desc: alcalase (Bacillus licheniformis, UniProt P00780)
- Construct: purchased Novo Nordisk (gift)
- Sequence (P00780 106-379): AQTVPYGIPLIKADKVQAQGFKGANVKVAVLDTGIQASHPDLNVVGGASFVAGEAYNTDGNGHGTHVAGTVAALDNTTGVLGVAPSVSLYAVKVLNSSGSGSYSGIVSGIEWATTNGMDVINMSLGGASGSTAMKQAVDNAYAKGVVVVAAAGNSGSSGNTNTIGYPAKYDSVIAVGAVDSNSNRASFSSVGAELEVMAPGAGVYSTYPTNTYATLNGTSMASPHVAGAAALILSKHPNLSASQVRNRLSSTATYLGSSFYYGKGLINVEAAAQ
- Experiment Description: Solvent effect on alcalase catalyzed deacetylation of SOA
- Format: biochemical
- Assay Conditions: solvent as labelled, 24 hrs
- Protocol: Identical enzyme catalyzed SOA deacetylations were run in numerous anhydrous solvents. After 24 hrs incubation an aliquot was analyzed by HPLC. Enzyme Precipitation. Alcalase was prepared by adding 37.5 ml cold acetone (-20° C.) to 25 ml of alcalase solution as supplied by Novo. […] Enzyme and Solvent Screening for SOA Deacetylation. […] The residue was reconstituted in 200 μl of acetonitrile and 10 μl of this solution was analyzed by HPLC.
Recorded measurements of SOA, one per entry

- Molecule: "COC(C)(C)C"
  SOA: "92.6%"
- Molecule: "CCCCOC(C)=O [n-butyl acetate]"
  SOA: "97.6%"
- Molecule: "CCCOCCC"
  SOA: "83.9%"
- Molecule: "CC(C)OC(C)C"
  SOA: "75.2%"
- Molecule: "C1CCOC1 [THF, tetrahydrofuran]"
  SOA: "98.0%"
- Molecule: "ClC(Cl)(Cl)Cl [CCl4, carbon tetrachloride]"
  SOA: "94.8%"

###

- Test system: lipase AY 30
- Experiment Description: Effect of the solvent on lipase AY 30 catalyzed deacylation of SOP
- Assay type: biochemical, Candida cylindracea
- Assay Conditions: lipase AY 30, 24 hrs, HPLC peak 8.9 min

- Compound: "C1CCOC1 [THF, tetrahydrofuran]"
  Target Desc: "lipase AY 30"
  Value Units: "%"
  SheptaP's (8.9 min): 0
- Compound: "CCCCCCCCO"
  Target Desc: "lipase AY 30"
  Value Units: "%"
  SheptaP's (8.9 min): 0
- Compound: "CCCCCCCC"
  Target Desc: "lipase AY 30"
  Value Units: "%"
  SheptaP's (8.9 min): 0.5
- Compound: "CCCCCC"
  Target Desc: "lipase AY 30"
  Value Units: "%"
  SheptaP's (8.9 min): 0.6
- Compound: "ClC(Cl)(Cl)Cl [CCl4, carbon tetrachloride]"
  Target Desc: "lipase AY 30"
  Value Units: "%"
  SheptaP's (8.9 min): 0
- Compound: "O=C1CCCCC1"
  Target Desc: "lipase AY 30"
  Value Units: "%"
  SheptaP's (8.9 min): 0
